Recorded polymerase ribozyme fitness (log ratio) for the following variants
B1: TPR 5TU (parent)
chain: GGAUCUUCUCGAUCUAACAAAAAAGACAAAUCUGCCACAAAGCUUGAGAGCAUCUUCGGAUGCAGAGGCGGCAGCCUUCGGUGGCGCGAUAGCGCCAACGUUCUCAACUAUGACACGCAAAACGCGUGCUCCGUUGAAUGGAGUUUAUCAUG

Variants of: B1
assayNotes: polymerase ribozyme fitness, log enrichment relative to wild type (log ratio); higher = more active; in vitro selection for triplet polymerase activity
Variants at the floor of the assay were thinned out.
measure: polymerase ribozyme fitness (log ratio)

> print(dat)
                              sequencechange  censoringsign  observedmeasurement
 1                  U15G A39U C43U G50C G94A              ≤                 -4.2
 2                       G59C C85G A89U G92A              ≤                 -4.2
 3      C5U G46A A52G C85U A107U C118A A137U              ≤                 -4.2
 4                     U53A A91G G126U G140U              ≤                 -4.2
 5                       A37G C85U G88C C95U              ≤                 -4.2
 6           A49C G65U G84U C96U A121U C125G              ≤                 -4.2
 7                 G59A A64U C85A G92A U144C              ≤                 -4.2
 8                U31C G71A G86C C118A U151G              ≤                 -4.2
 9                           C51G C87U C114G              ≤                 -4.2
10                                 A39U G62A              =                -2.58
11           C18G C57G G80U C87A U127C G128C              ≤                 -4.2
12                      G11A G46U G92A C118U              ≤                 -4.2
13                           A41U G62C G136U              =                -3.69
14                   C8U A16U A21C G67U C87U              ≤                 -4.2
15                           A40U G92A A120C              =                -2.75
16           A24U G50C C57U C79G C118G U148C              ≤                 -4.2
17                                C95U A119G              =                0.353
18   C69A C93U U102G A113U G117U U146A C149U              ≤                 -4.2
19        A3C A47G A52G C87U C96U C99U G124A              =                -4.19
20                           G83C C95U G126A              =                -2.05
21                                 C10G C93U              =                -3.86
22                   U135G A137U U139A U151G              ≤                 -4.2
23                         C103A A107C A142C              ≤                 -4.2
24                      G83C G94A A98U C125U              =                -1.82
25   A89U A97U U101A A107C A121C G140U U148G              ≤                 -4.2
26                            C10G A39U G84A              ≤                 -4.2
27                                C57U U101A              =                 0.41
28                     G68C C93U G140A A147G              ≤                 -4.2
29                           C32G C87A A115C              ≤                 -4.2
30  C8A U31G U33G A40U C51U U77C C93G C108G C116U A147G              ≤                 -4.2
31                       G81U C85G A89C C93G              ≤                 -4.2
32                                 A3U G143U              =                -2.76
33  A17U A47G C57U G74C U77C U82A G83A U102G A150G              ≤                 -4.2
34                          G86U G124A U148A              =                -3.78
35                                 C51U C79U              =                -3.01
36                            G67U C85A C93U              ≤                 -4.2
37                            A23G A73U G81C              =                -4.17
38                 A47C U55A C87G A91G A150G              ≤                 -4.2
39                                 U56A C96G              =               -0.228
40                                 A49C A66G              ≤                 -4.2
41                      U13A A41G C85G A147G              =                -2.67
42                      G67U G70C G86A C132G              ≤                 -4.2
43                  A3C C14G C27U C85U U144G              =                 -2.9
44                          A52G A106U U135A              =                 -1.7
45                       U9G A24U C96U U144G              ≤                 -4.2
46                                A39U C103G              =                -4.14
47                                 C35U C57U              =                0.194
48                           G88A C95A C123A              ≤                 -4.2
49  U13A A21C U56A A60G G92U U102A C114U C123U              =                -3.84
50                                 C18G C96U              =                -1.12
51                                A98U U127G              =                -3.18
52                                 C35G C87U              =                -4.18
53           A24C U56G G59C A91U U144C G152U              ≤                 -4.2
54                            C14G A60U G86U              ≤                 -4.2
55       A37C A40G A52U A60G G70C G86U A119C              ≤                 -4.2
56                  U31C A41G A66C G68C C95G              ≤                 -4.2
57                     A49C U56A A113U G152U              =                -3.93
58            C35U G58U G74A G80U G83A C116G              ≤                 -4.2
59                                 U55A A89G              =                -1.16
60                            C54U C69G C85G              =                 -3.9
61  A37U A52U C57U G74A C76U C93U C95U U109G              ≤                 -4.2
62                                C93A U127C              =                 -3.6
63                          G59U A107C A121U              =                -3.86
64                                U90C G126U              =                -3.66
65                           A22C C85A A137G              =                -2.49
66                       C36G C51U C54U C93G              ≤                 -4.2
67                                 G50C C95A              =                 -2.7
68                            G11C C27U G92U              =                -2.73
69                                G86A A121U              =                -0.51
70                           C38U C96A G141A              =              -0.0442
71                      A12C A21C A23C G136A              ≤                 -4.2
72                                 A23G A47C              =                -2.96
73               U55G G83C U135A G136A C149A              ≤                 -4.2
74                C69G G84U A89U A122C U146C              =                -2.82
75                       C35A G70A C79U G81A              ≤                 -4.2
76                               A110C A121U              =                -4.04

The values you see were collected from the RNAGym collection of RNA variant scans (doi:10.1073/pnas.2313332121).
